target: SGK kinase (Homo sapiens, UniProt O00141); test: IC50 for SGK kinase (selectivity); type: biochemical
Sequence (O00141 whole entry): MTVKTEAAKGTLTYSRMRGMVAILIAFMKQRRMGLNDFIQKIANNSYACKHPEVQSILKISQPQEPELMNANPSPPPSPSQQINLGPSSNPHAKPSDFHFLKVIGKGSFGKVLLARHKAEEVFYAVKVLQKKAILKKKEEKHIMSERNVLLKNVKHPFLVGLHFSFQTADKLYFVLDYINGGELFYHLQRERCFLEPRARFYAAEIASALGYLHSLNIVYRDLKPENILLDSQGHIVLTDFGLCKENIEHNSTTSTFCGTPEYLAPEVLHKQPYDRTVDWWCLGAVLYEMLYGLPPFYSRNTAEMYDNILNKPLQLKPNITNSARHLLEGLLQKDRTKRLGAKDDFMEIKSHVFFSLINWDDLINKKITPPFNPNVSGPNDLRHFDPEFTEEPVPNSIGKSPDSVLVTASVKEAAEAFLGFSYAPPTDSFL
READOUT KIND: IC50-SGK1

INSERT INTO results (compound, test_system, meas_value) VALUES
  ('Fc1ccccc1CNc1ncc2nc(-c3c(Cl)cccc3Cl)n(C[C@@H]3CCCNC3)c2n1', 'SGK kinase (Homo sapiens, UniProt O00141)', 'Inactive'),
  ('Fc1cc(F)cc(CNc2ncc3nc(-c4c(Cl)cccc4Cl)n(CCC4CCNCC4)c3n2)c1', 'SGK kinase (Homo sapiens, UniProt O00141)', 'Inactive'),
  ('Fc1ccc(CNc2ncc3nc(-c4c(F)cccc4Cl)n(C[C@@H]4CCCNC4)c3n2)c(F)c1', 'SGK kinase (Homo sapiens, UniProt O00141)', 'Inactive'),
  ('Fc1ccccc1CNc1ncc2nc(-c3ccccc3Cl)n(CCC3CCNCC3)c2n1', 'SGK kinase (Homo sapiens, UniProt O00141)', 'Inactive'),
  ('Fc1ccc(CNc2ncc3nc(-c4c(F)cccc4Cl)n(C[C@H]4CCNC4)c3n2)cc1F', 'SGK kinase (Homo sapiens, UniProt O00141)', 'Inactive'),
  ('NCCCCCCn1c(-c2c(Cl)cccc2Cl)nc2cnc(NCc3ccccc3F)nc21', 'SGK kinase (Homo sapiens, UniProt O00141)', 'Inactive'),
  ('Fc1cccc(Cl)c1-c1nc2cnc(NCc3cccc(Cl)c3)nc2n1C[C@H]1CCNC1', 'SGK kinase (Homo sapiens, UniProt O00141)', 'Inactive'),
  ('Fc1ccccc1CNc1ncc2nc(-c3c(Cl)cccc3Cl)n(C3CCNCC3)c2n1', 'SGK kinase (Homo sapiens, UniProt O00141)', 'Inactive'),
  ('Fc1ccccc1CNc1ncc2nc(-c3c(Cl)cccc3Cl)n(CC3CCCNC3)c2n1 (stereo not drawn)', 'SGK kinase (Homo sapiens, UniProt O00141)', 'Inactive'),
  ('Fc1cccc(CNc2ncc3nc(-c4c(Cl)cccc4Cl)n(C[C@H]4CCNC4)c3n2)c1', 'SGK kinase (Homo sapiens, UniProt O00141)', 'Inactive'),
  ('Fc1ccc(CNc2ncc3nc(-c4ccccc4Cl)n(C[C@@H]4CCCNC4)c3n2)c(F)c1', 'SGK kinase (Homo sapiens, UniProt O00141)', 'Inactive'),
  ('NCCN1CCC(n2c(-c3c(Cl)cccc3Cl)nc3cnc(NCc4ccccc4F)nc32)CC1', 'SGK kinase (Homo sapiens, UniProt O00141)', 'Inactive'),
  ('C[C@H](Nc1ncc2nc(-c3ccccc3Cl)n(C[C@@H]3CCCNC3)c2n1)c1ccccc1F', 'SGK kinase (Homo sapiens, UniProt O00141)', 'Inactive'),
  ('Fc1ccccc1CNc1ncc2nc(-c3c(Cl)cccc3Cl)n(CCC3CCCNC3)c2n1 (stereo not drawn)', 'SGK kinase (Homo sapiens, UniProt O00141)', 'Inactive'),
  ('Fc1ccc(CNc2ncc3nc(-c4c(Cl)cccc4Cl)n(C[C@H]4CCNC4)c3n2)cc1F', 'SGK kinase (Homo sapiens, UniProt O00141)', 'Inactive'),
  ('Clc1cccc(Cl)c1-c1nc2cnc(NCc3cccs3)nc2n1C[C@H]1CCNC1', 'SGK kinase (Homo sapiens, UniProt O00141)', 'Inactive'),
  ('Fc1cccc(CNc2ncc3nc(-c4c(F)cccc4Cl)n(C[C@H]4CCNC4)c3n2)c1', 'SGK kinase (Homo sapiens, UniProt O00141)', 'Inactive'),
  ('Fc1ccc(CNc2ncc3nc(-c4c(Cl)cccc4Cl)n(C[C@@H]4CCCNC4)c3n2)cc1F', 'SGK kinase (Homo sapiens, UniProt O00141)', 'Inactive'),
  ('Fc1ccc(F)c(CNc2ncc3nc(-c4c(Cl)cccc4Cl)n(C[C@H]4CCNC4)c3n2)c1', 'SGK kinase (Homo sapiens, UniProt O00141)', 'Inactive'),
  ('Fc1ccc(CNc2ncc3nc(-c4ccccc4Cl)n(C[C@@H]4CCCNC4)c3n2)cc1F', 'SGK kinase (Homo sapiens, UniProt O00141)', 'Inactive'),
  ('Fc1ccccc1CNc1ncc2nc(-c3c(F)cccc3Cl)n(C[C@H]3CCCNC3)c2n1', 'SGK kinase (Homo sapiens, UniProt O00141)', 'Inactive');

====

target: SGK kinase (Homo sapiens); assay: IC50 for SGK kinase (selectivity); assay type: biochemical; settings: read-out: IC50-SGK1
pIC50: −log10 of the molar value.
pIC50 by entry:
READOUT KIND: pIC50

INSERT INTO assay_data (molecule, meas_value) VALUES
  ('NC[C@H]1CC[C@H](n2c(-c3c(Cl)cccc3Cl)nc3cnc(NCc4ccccc4F)nc32)CC1', '< 5.00'),
  ('Fc1ccc(Cl)cc1CNc1ncc2nc(-c3c(F)cccc3Cl)n(C[C@@H]3CCCNC3)c2n1', '< 5.00'),
  ('Fc1ccc(F)c(CNc2ncc3nc(-c4c(Cl)cccc4Cl)n(CC4CCNC4)c3n2)c1 (centres unmarked)', '< 5.00'),
  ('Fc1ccccc1CNc1ncc2nc(-c3c(F)cccc3Cl)n(C[C@H]3CCNC3)c2n1', '< 6.00'),
  ('Clc1cccc(Cl)c1-c1nc2cnc(NCc3ccco3)nc2n1CCC1CCNCC1', '< 5.00'),
  ('Fc1cccc(CNc2ncc3nc(-c4c(Cl)cccc4Cl)n(CCC4CCNCC4)c3n2)c1', '< 6.00'),
  ('Clc1ccc(CNc2ncc3nc(-c4c(Cl)cccc4Cl)n(CCC4CCNCC4)c3n2)cc1', '< 5.00'),
  ('Clc1ccc(CNc2cc3c(cn2)nc(-c2c(Cl)cccc2Cl)n3CCC2CCNCC2)cc1Cl', '< 6.00');

====

target: PKC delta (Homo sapiens, UniProt Q05655); test: Ki Pan Vera (PV) potency for PKC delta; conditions: Ki Pan Vera (PV) of PKC delta
Sequence (Q05655 whole entry): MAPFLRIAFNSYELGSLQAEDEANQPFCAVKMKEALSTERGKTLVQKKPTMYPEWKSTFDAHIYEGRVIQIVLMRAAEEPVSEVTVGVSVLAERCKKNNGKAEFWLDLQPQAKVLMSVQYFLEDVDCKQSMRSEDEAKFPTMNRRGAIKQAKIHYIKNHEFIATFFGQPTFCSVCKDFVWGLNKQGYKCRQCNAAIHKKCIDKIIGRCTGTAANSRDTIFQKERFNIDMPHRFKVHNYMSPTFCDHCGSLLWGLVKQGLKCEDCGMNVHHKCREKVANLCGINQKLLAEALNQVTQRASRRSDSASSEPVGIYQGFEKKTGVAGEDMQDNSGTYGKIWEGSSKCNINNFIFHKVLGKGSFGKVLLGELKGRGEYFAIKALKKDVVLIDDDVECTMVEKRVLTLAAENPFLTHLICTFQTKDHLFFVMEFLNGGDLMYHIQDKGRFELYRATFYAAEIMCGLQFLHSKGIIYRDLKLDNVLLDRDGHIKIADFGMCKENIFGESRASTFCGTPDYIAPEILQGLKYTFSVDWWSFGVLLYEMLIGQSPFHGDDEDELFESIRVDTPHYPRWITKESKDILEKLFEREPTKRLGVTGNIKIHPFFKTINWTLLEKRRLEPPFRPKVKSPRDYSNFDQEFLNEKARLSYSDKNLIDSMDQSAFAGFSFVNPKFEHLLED
READOUT KIND: Ki

INSERT INTO assay_data (compound, test_system, meas_value) VALUES
  ('Fc1ccc(Cl)cc1CNc1ncc2nc(-c3c(F)cccc3Cl)n(C[C@@H]3CCCNC3)c2n1', 'PKC delta (Homo sapiens, UniProt Q05655)', '> 1000 nM'),
  ('Fc1ccccc1CNc1ncc2nc(-c3ccccc3Cl)n(CCC3CCNCC3)c2n1', 'PKC delta (Homo sapiens, UniProt Q05655)', '> 1000 nM'),
  ('Fc1cccc(CNc2ncc3nc(-c4ccccc4Cl)n(C[C@@H]4CCCNC4)c3n2)c1', 'PKC delta (Homo sapiens, UniProt Q05655)', '> 1000 nM'),
  ('Fc1ccc(CNc2ncc3nc(-c4ccccc4Cl)n(C[C@@H]4CCCNC4)c3n2)cc1F', 'PKC delta (Homo sapiens, UniProt Q05655)', '> 1000 nM'),
  ('Fc1ccccc1CNc1ncc2c(n1)C(C[C@H]1CCCNC1)C(c1c(Cl)cccc1Cl)=N2 (stereo partly shown)', 'PKC delta (Homo sapiens, UniProt Q05655)', '> 1000 nM'),
  ('Fc1ccc(Cl)cc1CNc1ncc2nc(-c3c(Cl)cccc3Cl)n(C[C@@H]3CCCNC3)c2n1 [Compound 102]', 'PKC delta (Homo sapiens, UniProt Q05655)', '> 1000 nM'),
  ('Fc1ccc(CNc2ncc3nc(-c4c(Cl)cccc4Cl)n(CC4CCNC4)c3n2)cc1F (stereo not shown)', 'PKC delta (Homo sapiens, UniProt Q05655)', '> 1000 nM'),
  ('Fc1ccccc1CNc1ncc2nc(-c3c(Cl)cccc3Cl)n(CC3CCCNC3)c2n1 (stereo not shown)', 'PKC delta (Homo sapiens, UniProt Q05655)', '> 1000 nM'),
  ('Clc1cccc(Cl)c1-c1nc2cnc(NCc3ccccc3)nc2n1CCC1CCNCC1', 'PKC delta (Homo sapiens, UniProt Q05655)', '> 10000 nM'),
  ('Fc1cccc(Cl)c1-c1nc2cnc(NCc3ccc(Cl)c(Cl)c3)nc2n1C[C@@H]1CCCNC1', 'PKC delta (Homo sapiens, UniProt Q05655)', '> 1000 nM'),
  ('Fc1ccccc1CNc1ncc2nc(-c3c(F)cccc3Cl)n(C[C@H]3CCCNC3)c2n1 [Compound 162]', 'PKC delta (Homo sapiens, UniProt Q05655)', '> 10000 nM'),
  ('Fc1ccccc1CNc1ncc2nc(-c3c(Cl)cccc3Cl)n(C[C@H]3CCNC3)c2n1', 'PKC delta (Homo sapiens, UniProt Q05655)', '> 1000 nM'),
  ('Fc1ccccc1CNc1ncc2nc(-c3c(F)cccc3Cl)n(C[C@H]3CCNC3)c2n1', 'PKC delta (Homo sapiens, UniProt Q05655)', '> 1000 nM'),
  ('C[C@H](Nc1ncc2nc(-c3ccccc3Cl)n(C[C@@H]3CCCNC3)c2n1)c1ccccc1F', 'PKC delta (Homo sapiens, UniProt Q05655)', '> 10000 nM'),
  ('Fc1cccc(CNc2ncc3nc(-c4c(Cl)cccc4Cl)n(C[C@@H]4CCCNC4)c3n2)c1', 'PKC delta (Homo sapiens, UniProt Q05655)', '> 250 nM'),
  ('Fc1cccc(Cl)c1-c1nc2cnc(NCc3cccs3)nc2n1C[C@@H]1CCCNC1', 'PKC delta (Homo sapiens, UniProt Q05655)', '> 1000 nM');
